Entries and their phenotypically active values follow.
System: WPMY1-ACTB-RAB5A
measurement.description: phenotypically active (imaging signature differs from DMSO and reproducible) at any of 0.3-9 uM (binary (1 = active, 0 = inactive)); higher = active
condition.notes: treatment time: 24 h
Reply: number alone, nothing else.

>>> measured("Cc1n[nH]c2ccc(-c3cncc(OC[C@@H](N)Cc4ccccc4)c3)cc12")
1
>>> measured("COc1cc(C[C@H]2C(=O)OC[C@@H]2Cc2ccc(OC)c(OC)c2)ccc1O [Arctigenin]")
0
>>> measured("CNC(=O)COC(=O)NCCC1CCN(c2cccc(C)n2)CC1")
0
>>> measured("CC[N+](C)(C)c1cccc(O)c1 [edrophonium]")
0

// phenotypically active lookup, key: CC(=O)O[C@@]12CO[C@@H]1C[C@H](O)[C@@]1(C)C(=O)[C@H](O)C3=C(C)[C@@H](OC(=O)[C@H](O)[C@@H](NC(=O)OC(C)(C)C)c4ccccc4)C[C@](O)([C@@H](OC(=O)c4ccccc4)[C@H]21)C3(C)C [Docetaxel] 1

For Cc1nc(Nc2ncc(C(=O)Nc3c(C)cccc3Cl)s2)cc(N2CCN(CCO)CC2)n1 [dasatinib] , what is its reported phenotypically active? 1

---

Tested on: WPMY1-ACTB-RAB5A
measurement.description: phenotypically active (imaging signature differs from DMSO and reproducible) at any of 0.3-9 uM (binary (1 = active, 0 = inactive)); higher = active
condition.notes: treatment time: 24 h
Please reply with one of these outcomes: true (1) = active, false (0) = inactive

What classification did CCCOc1ccc(CCc2nc3cc(-c4c(C)noc4C)ccc3n2CCN2CCOCC2)cc1 end up with in this test? false (0)

---

Test system: HepG2-ACTB-RAB5A
measurement.description: phenotypically active (imaging signature differs from DMSO and reproducible) at any of 0.3-9 uM (binary (1 = active, 0 = inactive)); higher = active
condition.notes: treatment time: 24 h
Counter-ions that a name gives are not always drawn.
Hi there, use one of these labels in your reply, thanks! active, inactive

Solved entries (count: 2):
>>> answer_label("Nc1ncnc2c1c(-c1ccc(Cl)cc1)nn2-c1cccc(-c2cnnn2Cc2cccc(-c3ccccc3)c2)c1")
"inactive"
>>> answer_label("C[C@H](NC(=O)[C@@H](O)c1cc(F)cc(F)c1)C(=O)N[C@@H]1C(=O)N(C)c2ccccc2-c2ccccc21")
"inactive"

Called result for CC1=C(C(=O)Nc2cc3cn[nH]c3cc2F)C(c2ccc(C(F)(F)F)cc2)CC(=O)N1 (stereo not drawn) active

Dear colleague, could you share the recorded outcome for CNC(=O)c1c(-c2ccc(F)cc2)oc2cc(N(CCO)S(C)(=O)=O)c(C3CC3)cc12 [nesbuvir] when you have a moment? inactive

Hi team, can someone confirm the assay call for COc1cc(N2CCOCC2)ccc1Nc1ncc(Cl)c(Nc2ccccc2NS(C)(=O)=O)n1 ? active

What is the recorded call for this compound in the test? O=C(Nc1c(Cl)cncc1Cl)c1ccc(OC(F)F)c(OCC2CC2)c1 [roflumilast] inactive

Any idea what this test logged for CCCCOc1cc(C(=O)NCCN(CC)CC)c2ccccc2n1 [cinchocaine] ? inactive

Could you kindly confirm the outcome this assay logged for CS(=O)(=O)c1ccc(-c2nnc(/C=C/c3nnc(-c4ccc(C#N)cc4)o3)n2-c2ccccc2Cl)nc1 ? inactive

Just curious, what result did COC(=O)c1c(C)cc(OC(=O)c2c(C)cc(O)c(C=O)c2O)c(C)c1O [Atranorin] get here? inactive

Please indicate how the test categorized O=C([C@@H](Cc1cccc(C(F)(F)F)c1)NS(=O)(=O)c1cc(F)c2c(c1)CCNC2)N1CCCC1 [(R)-PFI 2 hydrochloride] . inactive

For CC(C)c1ccc2oc3nc(N)c(C(=O)O)cc3c(=O)c2c1 [Amlexanox] , what call appears in the results of this test? inactive

Which outcome was entered for the compound CCC1(c2ccccc2)C(=O)NCNC1=O [primidone] in this test? inactive

---

Tested on: WPMY1-ACTB-RAB5A
measurement.description: lowest phenotypically active concentration; higher = less potent
condition.notes: treatment time: 24 h
Attribute: lowest phenotypically active concentration
Report the value in µM with no unit label.

>>> measured("Cc1cc(C)cc(C(=O)NOCCCCCC(=O)NO)c1")
1
>>> measured("O=C(Nc1nc2cc(C(F)(F)F)cc(NC3CC3)n2n1)c1cccnc1")
3
>>> measured("Cn1cnc2c(F)c(Nc3ccc(Br)cc3Cl)c(C(=O)NOCCO)cc21 [selumetinib]")
9
>>> measured("CSc1ccc2c(c1)N(CCC1CCCCN1C)c1ccccc1S2 (stereo unspecified) [thioridazine]")
9
>>> measured("COc1ccc(S(=O)(=O)N(CCO)c2ccccc2CN(C)C/C=C/c2ccc(Cl)cc2)cc1")
9
>>> measured("OC[C@H]1O[C@@H](n2cnc3c(NCc4ccco4)ncnc32)[C@H](O)[C@@H]1O [Kinetin riboside]")
1
>>> measured("CC[C@@H](N)CNc1ccnc(-c2cc(-c3cnn(C)c3)ccc2O)n1")
3
>>> measured("Cc1ccc2nc(NCCN)c3ncc(C)n3c2c1")
3
>>> measured("Nc1ccc(-c2cccc3c(=O)cc(N4CCOCC4)oc23)cc1")
3
>>> measured("CNC(=O)c1ccccc1Sc1ccc2c(/C=C/c3ccccn3)n[nH]c2c1 [Axitinib]")
9

# next compound below
Data request, read-out lowest phenotypically active concentration, for O=c1cc(N2CCOCC2)oc2c(-c3cccc4c3sc3ccccc34)cccc12 1

---

System: WPMY1-ACTB-RAB5A
measurement.description: phenotypically active (imaging signature differs from DMSO and reproducible) at any of 0.3-9 uM (binary (1 = active, 0 = inactive)); higher = active
condition.notes: treatment time: 24 h
result.type: phenotypically active

>>> measured("C#Cc1cccc(Nc2ncnc3cc(OCCOC)c(OCCOC)cc23)c1")
"0 (inactive)"
>>> measured("c1ccc(CC2=NCCN2)cc1")
"0 (inactive)"
>>> measured("O=C(O)CCCC[C@@H]1SC[C@@H]2NC(=O)N[C@@H]21")
"0 (inactive)"
>>> measured("CC(C)N(CCCNC(=O)Nc1ccc(C(C)(C)C)cc1)C[C@H]1O[C@@H](n2cc(Br)c3c(N)ncnc32)[C@H](O)[C@@H]1O")
"1 (active)"
>>> measured("CCCCCCCCCCCCCCCCCCc1ccc(C(=O)/C=C/C(=O)O)cc1")
"0 (inactive)"

Give phenotypically active (WPMY1-ACTB-RAB5A) of the following molecule: O=c1cc(-c2ccccc2)oc2c(O)c(O)ccc12 [7,8-Dihydroxyflavone] 1 (active)

Form field: phenotypically active recorded for CSc1ccc(C(=O)c2[nH]c(=O)[nH]c2C)cc1 with WPMY1-ACTB-RAB5A (enter value) 0 (inactive)

API: value(readout=phenotypically active, system=WPMY1-ACTB-RAB5A) for record O=C(O)c1ccc(Nc2ncc3c(n2)-c2ccc(Cl)cc2C(c2c(F)cccc2F)=NC3)cc1 1 (active)

Request: phenotypically active, test system WPMY1-ACTB-RAB5A, entry COc1cc2ncn(-c3cc(OCc4ccccc4C(F)(F)F)c(C(N)=O)s3)c2cc1OC 1 (active)

---

System: HepG2-GM130-SQSTM1
measurement.description: lowest phenotypically active concentration; higher = less potent
condition.notes: treatment time: 24 h
result.type: lowest phenotypically active concentration (µM)
Note: unit µM is implicit; provide only the numeric part.

Known results for compounds:
>>> measured("O=C(O)COc1ccc(Br)cc1/C=C1\\SC(=S)N(Cc2cccnc2)C1=O")
3
>>> measured("CC(C)[C@@H](C)/C=C/[C@@H](C)[C@H]1CC[C@H]2C3=CC=C4C[C@@H](O)CC[C@]4(C)[C@H]3CC[C@]12C [Ergosterine]")
9
>>> measured("CSc1ccc2c(c1)N(CCC1CCCCN1C)c1ccccc1S2 (centres undefined) [thioridazine]")
9

# value lookup — system HepG2-GM130-SQSTM1, readout lowest phenotypically active concentration, item COc1cc2nc(N3CCN(C(=O)C4COc5ccccc5O4)CC3)nc(N)c2cc1OC (centres undefined) [doxazosin] 9

What value of lowest phenotypically active concentration on HepG2-GM130-SQSTM1 does Cc1c(NC(=O)OC[C@@H]2COCCN2)cn2ncnc(Nc3ccc4c(cnn4Cc4cccc(F)c4)c3)c12 have? 1

Query lowest phenotypically active concentration on HepG2-GM130-SQSTM1 for Cc1nnc(-c2ccc3occ(-c4ccc(S(C)=O)cc4)c3c2)o1 (centres undefined) 9

Lookup: lowest phenotypically active concentration / HepG2-GM130-SQSTM1 / COc1cc2c(cc1O)CC[C@@H]1[C@@H]2CC[C@]2(C)[C@@H](O)CC[C@@H]12 [2-methoxyestradiol] 3

Provide the documented lowest phenotypically active concentration with HepG2-GM130-SQSTM1 as the system for CC(C)n1c(/C=C/[C@@H](O)C[C@@H](O)CC(=O)O)c(-c2ccc(F)cc2)c2ccccc21 [fluvastatin] 1

Form field - read-out: lowest phenotypically active concentration; system: HepG2-GM130-SQSTM1; submitted item: CCN(CC)CCNc1ccc(CO)c2sc3ccccc3c(=O)c12 [hycanthone] 9

Identify the measured lowest phenotypically active concentration of C=C1C(=O)O[C@@H]2C=C(C)CCC=C(C)CC[C@@H]12 [Costunolide] for HepG2-GM130-SQSTM1. 3

Observed lowest phenotypically active concentration on HepG2-GM130-SQSTM1 for C[C@]1(O)C[C@@H](c2nc(-c3ccc4ccc(-c5ccccc5)nc4c3)c3c(N)nccn32)C1 [linsitinib] , please. 9

Lab note: need lowest phenotypically active concentration with HepG2-GM130-SQSTM1 for entry O=C(CCCc1ccc(-c2ccccc2F)cc1)Nc1ccc(O)cc1 , please look it up. 3
